Assay: TLR3 IRF3 reporter activation blockers – cell-based, poly I:C stimulus, luciferase, 10K MLSCN set, primary screen (AID 602277)
Conditions: HEK293-TLR3 RL24 IRF3 luciferase reporter, at 10 µM, stronger effect = higher value
Active and inactive are the calls of the source.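 Rule for the calls: active = inhibition of the reporter signal at or above 50%; inactive = inhibition below 50%.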
measured_attribute: inhibition

Here's what some known entries look like.
INSERT INTO assay_data (molecule, value) VALUES
  ('Cc1ccc(CN2C(=O)CCC2C(=O)NC2CCCC2)cc1 (stereo not given)', '21.8% (inactive)'),
  ('O=C(CCSc1nc(-c2ccco2)cc(C(F)(F)F)n1)NCCc1ccccc1', '-52.7% (inactive)'),
  ('CCc1nnc(NC(=O)CSc2nnc(-c3ccc(OC)cc3)n2C)s1', '20.1% (inactive)'),
  ('CCOCC(=O)Nc1nc2c(s1)C(=O)CC(C)(C)C2', '39% (inactive)');

Note: attention shifts to another entry.
Task: Consider the molecule shown here: "CCN(C1CCCCC1)S(=O)(=O)c1ccc(OC)c(C)c1" What is its recorded inhibition?
Result: 28.2% (inactive)

---

Biological target: Alpha-2C adrenergic receptor (Homo sapiens)
Experiment: compounds altering alpha2C-coupled GIRK flux – cell-based, HEK293 alpha2C/GIRK1/2, thallium flux, primary screen (AID 624);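 note: slope of fluorescence ratio to pre-addition baseline per second over 15 to 24 s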
Conditions: thallium flux BTC fluorescence, at 10 µM, actives lie on both sides
The source made the active and inactive calls.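 The calls were made as follows: active = fluorescence slope after compound addition differing from the mean of all screened samples at 99.7% confidence, in either direction; inactive = the rest.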
Recorded slope for the following compounds

Here's what some known entries look like.
INSERT INTO assay_data (compound, measured_attribute, value) VALUES
  ('CCOCCCNC(=O)Cn1cc2c(n1)CCCCC2', 'slope', '0.00693 (inactive)'),
  ('O=C(COC(=O)CCC(=O)c1cccs1)NCc1ccco1', 'slope', '0.00705 (inactive)');

Note: attention shifts to another entry.
Task: Consider the compound shown here: "O=C(CSc1nc2ccccc2o1)Nc1ccccc1" What is its recorded slope?
Result: 0.00667 (inactive)

---

Recorded NADPH fluorescence slope for the following compounds
Molecular target: Voltage-gated potassium channel subunit beta-2 (Rattus norvegicus) (UniProt P62483)
Sequence (P62483 whole entry, looked up): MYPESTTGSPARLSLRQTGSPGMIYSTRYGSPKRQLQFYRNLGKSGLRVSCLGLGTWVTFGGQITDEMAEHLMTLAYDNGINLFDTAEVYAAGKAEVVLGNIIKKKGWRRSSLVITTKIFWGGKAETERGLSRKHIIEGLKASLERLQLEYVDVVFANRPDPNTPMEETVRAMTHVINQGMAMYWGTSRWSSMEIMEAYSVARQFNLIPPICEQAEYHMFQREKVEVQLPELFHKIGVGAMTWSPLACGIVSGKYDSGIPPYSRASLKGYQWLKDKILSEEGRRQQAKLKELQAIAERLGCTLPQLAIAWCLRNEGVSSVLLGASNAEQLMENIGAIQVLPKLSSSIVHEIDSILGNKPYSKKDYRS
Assay: enhancers of rat Kvbeta2 NADPH turnover – biochemical, NADPH fluorescence, primary screen (AID 623);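 note: fluorescence intensity change per second fitted from 20 to 320 s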
Details: Recombinant KvBeta, NADPH fluorescence decrease slope, 10 min; at 10 µM; stronger effect = lower value
Where a SMILES comes first, the peptide text is derived from it.
Number only, no unit.

Here's what some known entries look like.
INSERT INTO measurements (compound, value) VALUES
  ('CCOc1cc(C(=O)Nc2ccon2)cc(OCC)c1OCC', '1.3e-05'),
  ('O=C(Nc1cccc(C(F)(F)F)c1)c1ccco1', '-5.6e-05'),
  ('CC(=O)NC(Cc1cc(C)ccc1C)C(=O)N1CCN(C(=O)Nc2ccc(C(C)=O)cc2)CC1 (stereo not given)', '-4.4e-05'),
  ('CCCC(NC(=O)CNC(=O)C(C)(C)C)C(=O)O (stereo not given) (HELM PEPTIDE1{[CC(C)(C)C(=O)[*:2]].G.[CCCC(N[*:1])C(=O)O]}$$$$V2.0)', '-1.3e-05'),
  ('COC(=O)c1c(C#N)c(N)nc2c1CCC2', '-2e-06'),
  ('O=C(Nc1ccccc1N1CCN(c2ccc(F)cc2)CC1)c1ccccc1', '-3.4e-05'),
  ('C=CCn1c(SCC(=O)O)nnc1-c1cccc(Cl)c1', '-8e-06'),
  ('CCCS(=O)(=O)N1CCCC(C(=O)NC2CCCC(C)C2C)C1 (stereo not given)', '2.2e-05');

Task: Consider the compound shown here: "O=C(Oc1ccccc1)c1cccc(COC(=O)c2cnccn2)c1" What is its recorded NADPH fluorescence slope?
Result: -5.1e-05

Task: // query: "O=C(c1ccccc1F)N1CCN(Cc2cccc(Cl)c2)CC1"
Result: 1.7e-05

Task: // query: "O=C1c2ccccc2C(=O)N1C/C=C/c1ccccc1"
Result: -5.2e-05

Task: // query: "CS(=O)(=O)c1ccc2nc(NC(=O)c3cccs3)sc2c1"
Result: -5.8e-05

---

Assay: inhibitors of TNFa-induced NFkB p65 translocation, primary screen, imaging, HUVEC, MLSMR starter and 10KST1 sets (AID 438);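 note: compound added about 3h40 before a 20 min TNFalpha stimulation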
Details: HUVEC TNFa-induced p65 nuclear translocation; measured here: nuclei count (cytotoxicity indicator), at 2.08 µM
Dear colleague, classification is by cell count, with ranges listed here: bottom range: < 400; center range: ≥ 400 and < 500; top range: ≥ 500

Completed entries (count: 8):
INSERT INTO measurements (molecule, category_label) VALUES
  ('Cc1csc(NC(=O)c2ccco2)n1', 'center range'),
  ('Cc1nc2ccc(S(=O)(=O)NCC(=O)N3CCCCC3)cc2s1', 'bottom range'),
  ('c1ccc2c(c1)CNc1ccccc1C2', 'top range'),
  ('CCc1c(C)nc2ncnn2c1NCCc1ccc(OC)c(OC)c1', 'center range'),
  ('COc1cccc(-n2c(SCC(=O)Nc3cc(C)on3)nc3c([nH]c4ccccc43)c2=O)c1', 'top range'),
  ('CCC(C)(C(=O)NC1CCCCC1)N(CC1CCCO1)C(=O)c1ccccn1 (configuration not stated)', 'bottom range'),
  ('CN(Cc1ccccc1)S(=O)(=O)c1ccc(S(=O)(=O)N2CCN(CCC#N)CC2)cc1', 'top range'),
  ('O=S(=O)(c1ccc2ccccc2c1)N1CCCCC1', 'center range');

Task: Where would CCOC(=O)C1CCCN(Cc2nc(N)nc(Nc3ccc(C)cc3)n2)C1 (configuration not stated) land among the classes by reported cell count?
Result: top range

Task: // query: "CC(C)(Oc1ccc(Cl)cc1)C(=O)NCc1ccncc1"
Result: center range

Task: // query: "c1ccc2c(c1)Cc1cc(CN3CCOCC3)ccc1-2"
Result: bottom range

---

Biological target: Alpha-2C adrenergic receptor (Homo sapiens)
Assay: compounds altering alpha2C-coupled GIRK flux – cell-based, HEK293 alpha2C/GIRK1/2, thallium flux, primary screen (AID 624);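 note: slope of fluorescence ratio to pre-addition baseline per second over 15 to 24 s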
Conditions: thallium flux BTC fluorescence, at 10 µM, actives lie on both sides
Recorded slope for the following compounds
Number only, no unit.

Here's what some known entries look like.
INSERT INTO results (compound, value) VALUES
  ('S=c1[nH]nc(-c2ccccc2)n1C1C=CCCC1 (centres undefined)', 0.00318),
  ('CCCCc1n[nH]c2c1C(=O)CC(C)(C)C2', 0.00506),
  ('COc1ccc(OC)c(C(=O)COC(=O)c2cc(C)oc2C)c1', 0.00558),
  ('CC1CCCN(C(=O)CN2C(=O)c3ccccc3C2=O)C1 (centres undefined)', 0.00658),
  ('C=CCN(C(=O)CNS(=O)(=O)c1ccccc1)C(C(=O)NCCOC)c1ccncc1 (centres undefined)', 0.00567),
  ('Cc1ccc(N2C(=O)c3ccccc3C2O)nc1 (centres undefined)', 0.00652),
  ('COc1ccccc1OCC(=O)Nc1cccc(-c2nc3ccccc3o2)c1', 0.00387),
  ('CC1=C(C(=O)OC2CCCCC2)C(c2ccc(C)o2)C2=C(CC(C)(C)CC2=O)N1 (centres undefined)', 0.0052);

Task: Consider the compound shown here: "O=C(Nc1ccc(Cl)cc1C(=O)O)c1ccc2c(c1)C(=O)N(Cc1ccco1)C2=O" What is its recorded slope?
Result: 0.00498

Task: // query: CCCOc1ccccc1C1CC(=O)Nc2cc3c(cc21)OCCO3 (centres undefined)
Result: 0.00236

Task: // query: "Cc1ccc(Cn2c(CN3CCOCC3)nc3c2c(=O)n(C)c(=O)n3C)cc1"
Result: 0.00599

---

Assay: TLR3 IRF3 reporter activation blockers – cell-based, poly I:C stimulus, luciferase, 10K MLSCN set, primary screen (AID 602277)
Settings: HEK293-TLR3 RL24 IRF3 luciferase reporter, at 10 µM, stronger effect = higher value
Recorded inhibition for the following compounds
# unit: % | format: bare number

Here's what some known entries look like.
INSERT INTO results (compound, value) VALUES
  ('Cc1cccc(N2C(=O)CC(N(C(=O)c3ccco3)c3cccc(C)c3)C2=O)c1 (centres undefined)', 19),
  ('COC(=O)c1[nH]c2c(c1C)C(=O)CC(c1cc(OC)ccc1OC)C2 (centres undefined)', 21.5),
  ('O=C(c1cccnc1)N1CCN(Cc2ccc3c(c2)OCO3)CC1', 13.5);

Note: attention shifts to another entry.
Task: Consider the compound shown here: CC1=C(C(=O)Nc2cccnc2)C(c2ccc(C(C)C)cc2)n2ncnc2N1 (centres undefined) What is its recorded inhibition?
Result: 20

---

Assay: TLR3 IRF3 reporter activation blockers – cell-based, poly I:C stimulus, luciferase, 10K MLSCN set, primary screen (AID 602277)
Details: HEK293-TLR3 RL24 IRF3 luciferase reporter, at 10 µM, stronger effect = higher value
inhibition of -20% or higher: true (1). Under -20%: false (0).

Completed entries (count: 5):
INSERT INTO results (compound, category_label) VALUES
  ('CCOc1ccc(-c2nnc(N)s2)cc1', 'false (0)'),
  ('NC(=O)c1c(NC(=O)CN2CCCC2)sc2c1CCCC2', 'false (0)'),
  ('O=C(Nc1ccc(N2CCOCC2)cc1)C1CC1', 'true (1)'),
  ('COc1nnc(-c2ccc(C)c(S(=O)(=O)NCCO)c2)c2ccccc12', 'true (1)'),
  ('CC1=C(C)[N+](=O)C2CCCCC2N1[O-] (stereo unspecified)', 'true (1)');

Then there is this compound:
Task: Could you verify whether the entry "Cc1cc(C)cc(OCC(=O)NC2=NCCS2)c1" shows inhibition of no less than -20%?
Result: false (0)
